- assayed.system: UniProt:C5YGL7
- assay.procedure: SbFNR1 activity assay (dihydroflavonols, flavanones, anthocyanidins)
- Assay type: biochemical
- condition.summary: in words
readout.label: activity of SbFNR1 against the substrate

Please state recorded activity of SbFNR1 against the substrate (tested on UniProt:C5YGL7) of O=C1c2c(O)cc(O)cc2O[C@H](c2ccc(O)cc2)[C@H]1O [DHK, dihydrokaempferol]
no significant activity

Give UniProt:C5YGL7 activity of SbFNR1 against the substrate for O=C1c2c(O)cc(O)cc2O[C@H](c2ccc(O)c(O)c2)[C@H]1O [DHQ, dihydroquercetin]
no significant activity

State its activity of SbFNR1 against the substrate on UniProt:C5YGL7: O=C1c2c(O)cc(O)cc2O[C@H](c2cc(O)c(O)c(O)c2)[C@H]1O [DHM, dihydromyricetin]
no significant activity
